Sourced from patent US20220127354A1

Target: T1, Cyno Cadherin-19 (cynomologous monkey (Macaca …, UniProt Q9H159 44-772 (human entry)))
T1 construct: also called cynomologous monkey CDH-19
T1 chain: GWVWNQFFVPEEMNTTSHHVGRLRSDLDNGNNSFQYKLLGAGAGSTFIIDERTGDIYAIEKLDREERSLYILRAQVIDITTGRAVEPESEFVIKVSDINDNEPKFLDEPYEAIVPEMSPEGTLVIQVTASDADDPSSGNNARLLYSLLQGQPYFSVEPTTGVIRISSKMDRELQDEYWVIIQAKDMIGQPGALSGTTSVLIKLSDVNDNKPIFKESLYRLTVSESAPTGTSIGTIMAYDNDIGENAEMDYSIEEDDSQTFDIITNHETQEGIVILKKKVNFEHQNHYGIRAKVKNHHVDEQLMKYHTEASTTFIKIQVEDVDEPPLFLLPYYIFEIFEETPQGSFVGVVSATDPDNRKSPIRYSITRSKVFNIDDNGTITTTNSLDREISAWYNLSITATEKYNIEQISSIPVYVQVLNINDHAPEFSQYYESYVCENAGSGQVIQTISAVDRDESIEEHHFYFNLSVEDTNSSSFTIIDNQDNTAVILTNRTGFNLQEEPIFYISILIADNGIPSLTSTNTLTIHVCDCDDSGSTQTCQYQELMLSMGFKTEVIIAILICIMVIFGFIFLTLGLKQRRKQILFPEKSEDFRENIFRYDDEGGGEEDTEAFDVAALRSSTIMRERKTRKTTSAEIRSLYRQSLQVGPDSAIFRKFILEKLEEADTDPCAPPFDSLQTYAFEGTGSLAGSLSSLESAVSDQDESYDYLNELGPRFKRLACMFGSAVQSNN
Assay: FACS, recombinant cynomologous CDH-19
readout-label: binding result

>  <binder>
hu anti-<huCDH19> 4B10 (Ab ID 13590) (antibody, V domains shown, huIgG1z / huKLC; Bin 4) VH: QVQLVESGGGVVQPGRSLRLSCAASGFTFSSYDMHWVRQAPGKGLEWVAVISYDGTNEYYADSVKGRFTISRDTSKNTLYLQMNSLRAEDTAVYYCARERYFDWSFDYWGQGTLVSVSS VL: EIVLTQSPGTLSLSPGERATLSCRASQSVSNTYLAWYHQRPGQAPRLLIYGASSRATGIPDRFSGSGSGTDFALTISSLEPEDFAVYYCQQYSNSWTFGQGTKVEIKR

>  <readout-label>
binding result

>  <reported-measurement>
binds

$$$$
>  <binder>
anti-CDH19 antibody 23A10 (Ab ID 13884) (antibody, human IgG1, lambda, V domains shown, Bin 4) VH: QVQLVESGGGVVQPGRSLRLSCAASGFTFSRYGIHWVRQAPGKGLEWVAVIWYDGSNKYYADSVKGRFTISRDNSKNTLYLLMNSLRAEDSAVYYCARRAGIPGTTGYYYGMDVWGQGTTVTVSS VL: SYELTQPPSVSVSPGQTASITCSGDRLGEKYVCWYQQKPGQSPILVIYQDNKWPSGIPERFSGSNSGNTATLTISGTQAMDEADYYCQAWDSSTVVFGGGTKLTVLG

>  <readout-label>
binding result

>  <reported-measurement>
binds

$$$$
